# Target Under Test: Pantothenate kinase 2, mitochondrial (Homo sapiens, UniProt Q9BZ23)
# Sequence (Q9BZ23 whole entry): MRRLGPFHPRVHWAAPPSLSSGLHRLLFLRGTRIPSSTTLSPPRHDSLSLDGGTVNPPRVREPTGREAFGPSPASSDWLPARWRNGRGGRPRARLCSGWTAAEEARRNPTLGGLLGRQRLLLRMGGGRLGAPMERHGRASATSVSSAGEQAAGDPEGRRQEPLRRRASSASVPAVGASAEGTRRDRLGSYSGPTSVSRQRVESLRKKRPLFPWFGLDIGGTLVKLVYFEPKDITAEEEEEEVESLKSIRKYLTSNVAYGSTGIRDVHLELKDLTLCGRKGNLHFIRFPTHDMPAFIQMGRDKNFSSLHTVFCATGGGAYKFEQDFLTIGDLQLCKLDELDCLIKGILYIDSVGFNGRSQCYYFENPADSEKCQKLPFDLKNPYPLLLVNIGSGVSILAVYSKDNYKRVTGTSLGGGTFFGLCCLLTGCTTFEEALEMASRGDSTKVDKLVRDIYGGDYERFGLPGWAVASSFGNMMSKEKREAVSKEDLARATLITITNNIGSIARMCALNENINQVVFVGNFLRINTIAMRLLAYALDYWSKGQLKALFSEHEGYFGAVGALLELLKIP
Quantity: IC50 (nM)
API: value field is a number in nM; no unit string.

Query block: Record request: IC50 value, item `CSc1cccc(NC(=O)CCc2c(C)nc3c4cccnc4nn3c2C)c1`
Result block: 92

---

Listing of recorded log10(IC50) by entry.
# Target Under Test: UniProt Q8TE04
# Method Notes: Inhibition of Pank1beta (unknown origin) by Kinase Glo HTS assay
Each number you see is log10 of IC50, and the unit inside the log is µM.

Query block: Record request: log10(IC50) value, item `COc1cccc(NC(=O)CCc2c(C)nc3c4cccnc4nn3c2C)c1`
Result block: -0.55

Query block: Record request: log10(IC50) value, item `CC(=O)Nc1ccc(NC(=O)CCc2c(C)nc3c4cccnc4nn3c2C)cc1`
Result block: -0.19

Query block: Record request: log10(IC50) value, item `Cc1nc2c3cccnc3nn2c(C)c1CCC(=O)NCc1cccc(F)c1`
Result block: 1.20

Others:
Query block: Record request: log10(IC50) value, item `Cc1nc2c3cccnc3nn2c(C)c1CCC(=O)Nc1ccccc1`
Result block: -0.07

Query block: Record request: log10(IC50) value, item `Cc1nc2c3cccnc3nn2c(C)c1CCC(=O)Nc1cccc(F)c1`
Result block: -0.62

---

# Target Under Test: UniProtKB Q9H999
# Sequence (Q9H999 whole entry): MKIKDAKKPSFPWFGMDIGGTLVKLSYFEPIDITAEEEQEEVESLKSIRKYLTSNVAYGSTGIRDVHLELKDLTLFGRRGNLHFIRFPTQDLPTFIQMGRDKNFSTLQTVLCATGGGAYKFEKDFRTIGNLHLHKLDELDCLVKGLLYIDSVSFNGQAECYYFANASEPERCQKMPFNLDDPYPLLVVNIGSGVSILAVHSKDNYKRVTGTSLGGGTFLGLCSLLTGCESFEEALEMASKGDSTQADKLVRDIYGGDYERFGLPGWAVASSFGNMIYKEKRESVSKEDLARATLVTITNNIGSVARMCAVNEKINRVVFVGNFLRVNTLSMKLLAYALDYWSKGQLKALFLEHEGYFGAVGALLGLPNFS
# Method Notes: Inhibition of Pank3 (unknown origin) by Kinase Glo HTS assay
pIC50: −log10 of the molar value.
Param threshold (6) applies to pIC50; output 1 when value >= threshold, 0 when value < threshold.

Example results:
Query block: Tell me whether pIC50 is at least 6 here: `COc1ccc(CNC(=O)CCc2c(C)nc3c4cccnc4nn3c2C)cc1`
Result block: 0

Query block: Tell me whether pIC50 is at least 6 here: `CC(C)c1ccc(NC(=O)CCc2nc(O)c3c4c(sc3n2)CCC4)cc1`
Result block: 1

Query block: Tell me whether pIC50 is at least 6 here: CCS(=O)(=O)Nc1ccc(C(=O)NC2CC3CCC2C3)cc1 (stereo unspecified)
Result block: 1

Query block: Tell me whether pIC50 is at least 6 here: `CSc1ccc(NC(=O)CCc2c(C)nc3c4cccnc4nn3c2C)cc1`
Result block: 0

Query block: Tell me whether pIC50 is at least 6 here: `Cc1nc2c3cccnc3nn2c(C)c1CCC(=O)Nc1ccccc1F`
Result block: 0

Next up:
Query block: Tell me whether pIC50 is at least 6 here: `Cc1nc2c3cccnc3nn2c(C)c1CCC(=O)Nc1cccc(F)c1`
Result block: 1

---

Listing of recorded pIC50 by entry.
# Target Under Test: Pantothenate kinase 1 (Homo sapiens)
# Sequence (Q8TE04 whole entry): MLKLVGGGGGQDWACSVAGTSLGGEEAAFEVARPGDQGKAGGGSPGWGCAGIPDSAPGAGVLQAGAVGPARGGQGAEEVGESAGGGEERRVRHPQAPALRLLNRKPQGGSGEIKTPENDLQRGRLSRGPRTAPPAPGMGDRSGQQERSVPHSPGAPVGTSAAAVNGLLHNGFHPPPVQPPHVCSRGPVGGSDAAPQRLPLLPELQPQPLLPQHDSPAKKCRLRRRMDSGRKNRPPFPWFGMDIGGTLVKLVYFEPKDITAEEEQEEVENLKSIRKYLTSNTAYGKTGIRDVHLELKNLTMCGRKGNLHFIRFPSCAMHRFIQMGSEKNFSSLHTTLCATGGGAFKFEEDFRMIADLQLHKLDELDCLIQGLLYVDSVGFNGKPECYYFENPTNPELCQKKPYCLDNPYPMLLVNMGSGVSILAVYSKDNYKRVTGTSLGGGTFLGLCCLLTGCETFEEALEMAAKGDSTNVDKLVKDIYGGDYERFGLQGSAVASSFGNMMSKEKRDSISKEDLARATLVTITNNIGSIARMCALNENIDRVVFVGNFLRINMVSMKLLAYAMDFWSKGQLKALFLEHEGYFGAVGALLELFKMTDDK
# Method Notes: Inhibition of Pank1beta (unknown origin) by Kinase Glo HTS assay
pIC50 (log units): -log10 of the concentration in mol/L.

Answered cases to consult:
Query block: Recall the recorded pIC50 for `Cc1nc2c3cccnc3nn2c(C)c1CCC(=O)NC1CCCCC1` with Pantothenate kinase 1 (Homo sapiens) and state it.
Result block: 4.87

Query block: Recall the recorded pIC50 for `COc1ccc(NC(=O)CCc2c(C)nc3c4cccnc4nn3c2C)cc1` with Pantothenate kinase 1 (Homo sapiens) and state it.
Result block: 5.17

Query block: Recall the recorded pIC50 for `Cc1cccc(NC(=O)CCc2c(C)nc3c4cccnc4nn3c2C)c1` with Pantothenate kinase 1 (Homo sapiens) and state it.
Result block: 5.80

Query block: Recall the recorded pIC50 for `Cc1nc2c3cccnc3nn2c(C)c1CCC(=O)Nc1ccccc1F` with Pantothenate kinase 1 (Homo sapiens) and state it.
Result block: 6.26

Query block: Recall the recorded pIC50 for `Cc1ccc(NC(=O)CCc2c(C)nc3c4cccnc4nn3c2C)cc1` with Pantothenate kinase 1 (Homo sapiens) and state it.
Result block: 4.95

Query block: Recall the recorded pIC50 for `CSc1cccc(NC(=O)CCc2c(C)nc3c4cccnc4nn3c2C)c1` with Pantothenate kinase 1 (Homo sapiens) and state it.
Result block: 6.85

Query block: Recall the recorded pIC50 for `Cc1nc2c3cccnc3nn2c(C)c1CCC(=O)NCC1CCCCC1` with Pantothenate kinase 1 (Homo sapiens) and state it.
Result block: 5.91

Query block: Recall the recorded pIC50 for `Cc1nc2c3cccnc3nn2c(C)c1CCC(=O)Nc1cccc(C(F)(F)F)c1` with Pantothenate kinase 1 (Homo sapiens) and state it.
Result block: 6.72

Query block: Recall the recorded pIC50 for `COc1ccc(CNC(=O)CCc2c(C)nc3c4cccnc4nn3c2C)cc1` with Pantothenate kinase 1 (Homo sapiens) and state it.
Result block: 4.83

Next:
Query block: Recall the recorded pIC50 for `CSc1ccc(NC(=O)CCc2c(C)nc3c4cccnc4nn3c2C)cc1` with Pantothenate kinase 1 (Homo sapiens) and state it.
Result block: 5.49

Source of measurements: ChEMBL document CHEMBL3407433
